The reader will find Kd measurements below, all made with IRAK3.

# annotated cases, reported Kd shown
CCn1c(-c2ccccn2)nc2cnccc21
7.5 µM
CS(=O)(=O)c1ccc(-c2c(-c3ncn[nH]3)sc(N3CCOCC3)c2C#N)cc1
> 10 µM

Proceeding to the next molecule to report its Kd.
# Cc1ccc(NC(=O)Nc2cccc(Cl)c2)cc1-c1ccc(C(=O)Nc2ccncc2)cc1 with IRAK3: Kd is > 10 µM

###

Tested on: FYN;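 further: KINOMEscan kinase panel screen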
ASSAY_CONTEXT: concentration: 1 μM, replicates: in singlicate; n = 1
PARAMETER_MEASURED: %Inh
Give the figure together with its unit, number first.

COc1ccc(Nc2nccc(-c3cccc(NC(=O)c4cc5cc(F)ccc5[nH]4)c3)n2)cc1
31%
Cc1ccc(NC(=O)Nc2cccc(Cl)c2)cc1-c1ccc(C(=O)Nc2ccncc2)cc1
8%
Cc1csc(-c2nc(Nc3ccncc3)c3ccccc3n2)n1
24%
O=C1NC(=O)C(N2CCc3ccccc32)=C1c1ccccc1Cl
18%
Fc1cc(Cl)ccc1Nc1ccnc2cc(-c3ccc(CN4CCCCC4)o3)ccc12
18%
COc1ccc2nc(-c3cccc(C)n3)nc(Nc3ccncc3)c2c1
13%
Cc1nnc(-c2ccc3occ(-c4ccc(S(C)=O)cc4)c3c2)[nH]1 (stereo not shown)
0%
Cl.c1ccc(-c2n[nH]cc2-c2ccnc(-c3ccc(CN4CCOCC4)cc3)c2)nc1
0%

Value of %Inh reported for the compound O=C(O)COc1ncnc2cc(-c3ccc4[nH]ncc4c3)sc12 is 100%

Value of %Inh reported for the compound CCCc1ccc(S(=O)(=O)NC2CCN(c3ccnc(Nc4ccc(F)cc4)n3)C2)cc1 (stereo not shown) is 0%
